The measured values listed here are drawn from patent US20050192314A1.

SYSTEM UNDER TEST: KIT(JMplus) (Homo sapiens)
Sequence (P10721 546-976 limits assumed): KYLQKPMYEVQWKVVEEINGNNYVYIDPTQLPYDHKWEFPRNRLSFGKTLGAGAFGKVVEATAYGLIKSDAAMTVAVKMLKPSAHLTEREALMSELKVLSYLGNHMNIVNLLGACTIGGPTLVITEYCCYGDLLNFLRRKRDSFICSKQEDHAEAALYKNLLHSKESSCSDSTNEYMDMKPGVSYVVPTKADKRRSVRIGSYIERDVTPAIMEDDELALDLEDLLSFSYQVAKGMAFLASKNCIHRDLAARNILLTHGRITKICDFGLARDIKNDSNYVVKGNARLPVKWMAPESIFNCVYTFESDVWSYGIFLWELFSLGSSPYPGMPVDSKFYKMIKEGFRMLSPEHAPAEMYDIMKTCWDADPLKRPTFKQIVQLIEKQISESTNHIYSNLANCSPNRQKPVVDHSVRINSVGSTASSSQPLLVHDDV
MEASURED PROPERTY: Kd

MOLECULE	TEST VALUE
CC(C)(C)c1cc(NC(=O)Nc2ccc(NC(=O)c3ncccc3O)cc2)no1	< 0.1 µM

---

SYSTEM UNDER TEST: KIT(JMminus,D816V) (Homo sapiens, UniProt P10721, D816V)
Construct: KIT(JMminus,D816V)
Sequence (P10721 589-937 D816V limits assumed): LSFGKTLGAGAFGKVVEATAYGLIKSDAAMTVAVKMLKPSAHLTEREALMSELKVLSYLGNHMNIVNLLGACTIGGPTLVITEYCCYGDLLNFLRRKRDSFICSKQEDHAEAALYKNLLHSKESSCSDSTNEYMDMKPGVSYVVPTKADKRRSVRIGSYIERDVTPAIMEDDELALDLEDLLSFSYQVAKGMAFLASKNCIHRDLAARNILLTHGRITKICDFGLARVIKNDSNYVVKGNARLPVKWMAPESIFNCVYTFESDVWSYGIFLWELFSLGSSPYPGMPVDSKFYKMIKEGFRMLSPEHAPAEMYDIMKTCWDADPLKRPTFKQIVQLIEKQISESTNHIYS
ASSAY REMARKS: Binding constant (Kd) measurement, phage-displayed kinase competition binding assay: KIT(JMminus,D816V)

MOLECULE	Kd
CC(C)(C)c1cc(NC(=O)Nc2ccc(NC(=O)c3ccccn3)cc2)no1	100 to 1000 nM
C=N/C(=N\C)Oc1cccc(C(=O)Nc2ccc(NC(=O)Nc3cc(C(C)(C)C)on3)cc2)c1	100 to 1000 nM
CC(C)(C)c1cc(NC(=O)Nc2ccc(Nc3ncnc4[nH]cnc34)cc2)no1	< 100 nM
Cc1ccc2[nH]c(C(=O)Nc3ccc(NC(=O)Nc4cc(C(C)(C)C)on4)cc3)cc2c1	1000 to 10000 nM
COc1cc2nc(Cl)nc(Nc3ccc(NC(=O)Nc4cc(C(C)(C)C)on4)cc3)c2cc1OC	1000 to 10000 nM
CC(C)(C)c1cc(NC(=O)Nc2ccc(C(=O)Nc3nccnc3N)cc2)no1	1000 to 10000 nM
CC(C)(C)c1cc(NC(=O)Nc2ccc(NC(=O)c3cc4ccccc4[nH]3)cc2)no1	1000 to 10000 nM
COc1cc2ncnc(Nc3ccc(NC(=O)Nc4cc(C(C)(C)C)on4)cc3)c2cc1OC	< 100 nM

---

SYSTEM UNDER TEST: KIT(JMminus) (Homo sapiens, UniProt P10721)
pKd: −log10 of the molar value.

MOLECULE	pKd
CC(C)(C)c1cc(NC(=O)Nc2ccc(NC(=O)c3cscn3)cc2)no1	> 7.00
Cc1nc(N)cc(Nc2ccc(NC(=O)Nc3cc(C(C)(C)C)on3)cc2)n1	> 7.00
CC(C)(C)c1cc(NC(=O)Nc2ccc(Nc3cc(N)nc(N)n3)cc2)no1	> 7.00
CC(C)(C)c1cc(NC(=O)Nc2ccc(NC(=O)c3nccc4ccccc34)cc2)no1	> 7.00
CC(C)(C)c1cc(NC(=O)Nc2ccc(NC(=O)Cc3noc4ccccc34)cc2)no1	> 7.00
Cc1ccc2sc(C(=O)Nc3ccc(NC(=O)Nc4cc(C(C)(C)C)on4)cc3)cc2c1	> 7.00
CC(=O)c1c[nH]c(C(=O)Cc2ccc(NC(=O)Nc3cc(C(C)(C)C)on3)cc2)c1	> 7.00
COc1ccnc(Nc2ccc(C(=O)Nc3ccc(NC(=O)Nc4cc(C(C)(C)C)on4)cc3)cc2)n1	> 7.00

---

Entries with reported pKd on KIT(JMminus) (Homo sapiens, UniProt P10721)
pKd: −log10 of the molar value.

MOLECULE	SYSTEM UNDER TEST	pKd
CC(C)(C)c1cc(NC(=O)Nc2ccc(NC(=O)c3sccc3OCc3cccc(C(F)(F)F)c3)cc2)no1	KIT(JMminus) (Homo sapiens, UniProt P10721)	> 7.00
CC(C)(C)c1cc(NC(=O)Nc2ccc(NC(=O)c3nnsc3Cc3ccc(Cl)cc3)cc2)no1	KIT(JMminus) (Homo sapiens, UniProt P10721)	6.00 to 7.00
CC(C)c1nnsc1C(=O)Nc1ccc(NC(=O)Nc2cc(C(C)(C)C)on2)cc1	KIT(JMminus) (Homo sapiens, UniProt P10721)	6.00 to 7.00
CC(C)(C)c1cc(NC(=O)Nc2ccc(OCc3ccccc3F)cc2)no1	KIT(JMminus) (Homo sapiens, UniProt P10721)	> 7.00

---

SYSTEM UNDER TEST: KIT(JMminus) (Homo sapiens)

MOLECULE	Kd
CC(C)(C)c1cc(NC(=O)Nc2ccc(Nc3nc(Cl)nc4[nH]cnc34)cc2)no1 [Compound O4]	< 100 nM
Cc1cc(NC(=O)[C@](C)(O)CSc2ccc(F)cc2)ccc1NC(=O)Nc1cc(C(C)(C)C)on1 [Compound N170]	< 100 nM
CC(C)c1cc(NC(=O)Nc2ccc(NC(=O)C3CCN(c4ncc(C(F)(F)F)cc4Cl)CC3)cc2)no1 [Compound N59]	100 to 1000 nM
CC(C)(C)c1cc(NC(=O)Nc2ccc(NC(=O)c3ccccc3O)cc2)no1 [Compound N69]	1000 to 10000 nM
CC(C)(C)c1cc(NC(=O)Nc2ccc(NC(=O)c3ccc4ccccc4n3)cc2)no1 [Compound N143]	< 100 nM
CC(C)(C)c1cc(NC(=O)Nc2ccc(NC(=O)c3ccc4sccc4c3)cc2)no1 [Compound N122]	< 100 nM
CC(C)(C)c1cc(NC(=O)Nc2ccc(OCC3CC3)cc2)no1 [Compound G37]	< 100 nM

---

Here, each record is paired with measured Kd data.
SYSTEM UNDER TEST: KIT(JMminus,D816V) (Homo sapiens, UniProt P10721, D816V)
Construct: KIT(JMminus,D816V)
ASSAY REMARKS: Binding constant (Kd) measurement, phage-displayed kinase competition binding assay: KIT(JMminus,D816V)

MOLECULE	Kd
CC(=O)Oc1cccnc1C(=O)Nc1ccc(NC(=O)Nc2cc(C(C)(C)C)on2)cc1	100 to 1000 nM
CC(C)(C)c1cc(NC(=O)Nc2ccc(N3C(=O)c4ccccc4C3=O)cc2)no1	1000 to 10000 nM
Cc1[nH]c(C(=O)Nc2ccc(NC(=O)Nc3cc(C(C)(C)C)on3)cc2)c(C)c1CCC(=O)O	100 to 1000 nM

---

Entries with reported Kd on KIT(DKIN) (Homo sapiens)

COMPOUND	SYSTEM UNDER TEST	Kd
CC(C)Oc1ccc(NC(=O)Nc2cc(C(C)(C)C)no2)cc1 [Compound G33]	KIT(DKIN) (Homo sapiens)	< 100 nM
COc1ccc(N(C)C(=O)Nc2cc(C(C)(C)C)on2)cc1 [Compound J10]	KIT(DKIN) (Homo sapiens)	100 to 1000 nM
Cc1[nH]c(C(=O)Nc2ccc(NC(=O)Nc3cc(C(C)(C)C)on3)cc2)c(C)c1CCC(=O)O [Compound N39]	KIT(DKIN) (Homo sapiens)	< 100 nM
CC(C)(C)c1cc(NC(=O)Nc2ccc(NC(=O)C(N)Cc3ccccc3F)cc2)no1 (centres unmarked) [Compound N42]	KIT(DKIN) (Homo sapiens)	1000 to 10000 nM
CC(C)(C)c1cc(NC(=O)Nc2ccc(OCc3ccccc3)cc2)on1 [Compound G30]	KIT(DKIN) (Homo sapiens)	100 to 1000 nM
CC(C)(C)c1cc(NC(=O)Nc2ccc(C(=O)NCc3ccc4c(c3)OCO4)cc2)no1 [Compound N97]	KIT(DKIN) (Homo sapiens)	100 to 1000 nM
CC(C)(C)c1cc(NC(=O)Nc2ccc(NC(=O)c3cccc(O)n3)cc2)no1 [Compound N131]	KIT(DKIN) (Homo sapiens)	< 100 nM
C/C=C/C(=O)Nc1ccc(NC(=O)Nc2cc(C(C)(C)C)on2)cc1 [Compound N93]	KIT(DKIN) (Homo sapiens)	1000 to 10000 nM
CC(C)(C)c1cc(NC(=O)Nc2ccc(Nc3nc(Cl)nc4[nH]cnc34)cc2)no1 [Compound O4]	KIT(DKIN) (Homo sapiens)	< 100 nM
CC(C)(C)OC(=O)Nc1ccc(NC(=O)Nc2cc(C(C)(C)C)on2)cc1 [Compound N101]	KIT(DKIN) (Homo sapiens)	100 to 1000 nM
CC(C)(C)c1cc(NC(=O)Nc2ccc(OCc3ccc(C(=O)c4ccccc4)cc3)cc2)no1 [Compound G9]	KIT(DKIN) (Homo sapiens)	100 to 1000 nM

---

SYSTEM UNDER TEST: KIT(DKIN) (Homo sapiens, UniProt P10721)
Sequence (P10721 589-937 limits assumed): as the sequence (P10721 589-937 D816V limits assumed) above, with V228D counted along it
pKd: −log10 of the molar value.
Here, each record is paired with measured pKd data.

COMPOUND	pKd
C[C@H](NC(=O)c1ccc(NC(=O)Nc2cc(C(C)(C)C)on2)cc1)c1ccccc1	6.00 to 7.00
CC(C)(C)c1cc(NC(=O)Nc2ccc(NC(=O)c3cnc4ccccc4n3)cc2)no1	5.00 to 6.00
Cc1cnc(C(=O)Nc2ccc(NC(=O)Nc3cc(C(C)(C)C)on3)cc2)cn1	> 7.00
Cc1c(Cl)cccc1NC(=O)Nc1cc(C(C)(C)C)on1	5.00 to 6.00
CC(C)(C)c1cc(NC(=O)Nc2ccc(NC(=O)c3ccc4ccncc4n3)cc2)no1	> 7.00
CC(C)(CO)c1cc(NC(=O)Nc2ccc(Cl)cc2)on1	5.00 to 6.00
Cc1cc(C)n(C(=O)Nc2ccc(Cl)cc2)n1	< 5.00
COc1ccc(NC(=O)Nc2cc(C(F)(F)F)cc(Cl)n2)cc1	6.00 to 7.00
CC(C)(C)c1cc(NC(=O)Nc2ccc(NC(=O)CCc3ccccc3)cc2)no1	6.00 to 7.00
CC(C)(C)c1cc(NC(=O)Nc2ccc(NC(=O)c3cccc(Cl)n3)cc2)no1	> 7.00
COc1cc(NC(=O)Nc2cc(C(C)(C)C)no2)cc(OC)c1OC	6.00 to 7.00
CC(C)(C)c1cc(NC(=O)Nc2ccc(NC(=O)CC(N)c3ccccc3Cl)cc2)no1 (stereo not shown)	5.00 to 6.00
CC(C)(C)c1cc(NC(=O)Nc2ccc(NC(=O)c3c[nH]c(=O)nc3-c3ccncc3)cc2)no1	5.00 to 6.00
COC(=O)c1ccc(C(=O)Nc2ccc(NC(=O)Nc3cc(C(C)(C)C)on3)cc2)nc1	6.00 to 7.00
O=C(Nc1ccno1)Nc1ccc(Cl)cc1Cl	5.00 to 6.00
CC(C)(C)c1cc(NC(=O)Nc2ccc(-c3nc(-c4cccc5ccccc45)no3)cc2)no1	5.00 to 6.00
CC1CN(CCOc2ccc(NC(=O)Nc3cc(C(C)(C)C)on3)cc2)CC(C)O1 (stereo not shown)	5.00 to 6.00
CC(C)(C)c1cc(NC(=O)Nc2ccc(OCCN3CCNCC3)cc2)no1	< 5.00
Cc1ccc(CNc2ccc(NC(=O)Nc3cc(C(C)(C)C)on3)cc2)cc1	6.00 to 7.00
CC(C)(C)c1cc(NC(=O)Nc2ccc(NC(=O)c3c4ccccc4nc4ccccc34)cc2)no1	5.00 to 6.00
Cc1nc(-c2ccc(C(=O)Nc3ccc(NC(=O)Nc4cc(C(C)(C)C)on4)cc3)s2)cs1	6.00 to 7.00
CC(C)(C)c1cc(NC(=O)Nc2ccc(NC(=O)c3cc(Cl)cc(Cl)c3)cc2)no1	6.00 to 7.00
CC(C)(C)c1cc(NC(=O)Nc2ccc(OCc3ccc(F)cc3Cl)cc2)no1	6.00 to 7.00
CC(C)(C)c1cc(NC(=O)Nc2ccc(Cl)cc2Cl)no1	5.00 to 6.00
CC(C)(C)c1cc(NC(=O)Nc2ccc(OCC(O)CO)cc2)no1 (stereo not shown)	6.00 to 7.00
